Provide the recorded growth for the entries that follow.
Tested on: NCI-H226 lung
Experiment: NCI-60 one-dose screen, 48 h (100 = growth as untreated, 0 = no growth, -100 = all killed)
Details: 10 µM unless noted
Compounds without any hit were thinned out: in the full panel of roughly 83,000, 20% have a hit.
Answers are plain numbers, in %.

Below are worked cases with known answers.
{"COMPOUND": "O=C1CC(N2C(=O)/C(=C/C(Cl)=C\\c3ccc([N+](=O)[O-])cc3)SC2=S)C(=O)N1c1ccc(O)cc1 (centres undefined)", "growth, %": -64}
{"COMPOUND": "COc1ccc(Nc2nnc(SCc3ccccc3F)s2)cc1", "growth, %": 87.2}
{"COMPOUND": "COC(=O)CCC1=C(C)C2=NC1=CC1=NC(=CC3=NC(=Cc4[nH]c(/c(=C(/C)O)c4C)=C2)C(C(C)=O)=C3C)C(C)=C1CCC(=O)OC", "growth, %": 83.9}

Now consider the entry below.
Ask: I would be grateful if you could share the reported growth for CN1CCN(CC(=O)Nc2nc(-c3cccc(NS(=O)(=O)c4cccc5c(N(C)C)cccc45)c3)cs2)CC1 .
Result: 75.2
